Answer each item with its documented pIC50.
# system_under_test: T1, human ROR1 extracellular domain (ECD) protein (human, UniProt Q01973 30-406)
# T1 construct: also called hROR1-ECD; human ROR1-ECD
# test_protocol: competitive phage ELISA: soluble ROR1 against ROR1-coated plate
pIC50 is defined as minus the log10 of a concentration measured in mol/L.

Ask: Query: pIC50; subject: P601-70 (scFv, V domains shown) VH: EVQLVQSGAELKKPGSSVRVSCKTSGGSFKTHGISWVRQAPGQGLEWMGWINPNSGGALYVDNFQGRATMTRDTSINTAYMELRSLSSDDTAVYYCARGMADLIDVFDIWGQGTMVTVSS VL: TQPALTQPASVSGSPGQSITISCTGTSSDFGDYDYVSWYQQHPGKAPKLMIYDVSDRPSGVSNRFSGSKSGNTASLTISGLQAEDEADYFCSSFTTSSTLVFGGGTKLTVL
Result: 7.13

Ask: Query: pIC50; subject: P601-112 (scFv, V domains shown) VH: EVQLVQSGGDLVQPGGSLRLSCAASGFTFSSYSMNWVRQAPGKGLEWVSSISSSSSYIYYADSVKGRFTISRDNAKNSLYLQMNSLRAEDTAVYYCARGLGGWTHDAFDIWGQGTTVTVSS VL: QSALTQPASVSGSPGQSITISCTGTSSDVGGYNYVSWYQQHPGKAPKLMIYDVSKRPSGVSNRFSGSKSGNTASLTISGLQAEDEADYYCSSYTGRSTVFGGGTKLTVL
Result: 8.54
